B1: library; numbered along this chain (parent)
chain: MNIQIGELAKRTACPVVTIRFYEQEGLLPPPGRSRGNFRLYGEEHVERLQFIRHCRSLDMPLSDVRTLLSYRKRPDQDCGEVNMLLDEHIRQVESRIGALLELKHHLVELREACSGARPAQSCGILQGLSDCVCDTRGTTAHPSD

- Variants of: B1
- method.notes: sfGFP reporter fluorescence (15 h) (µM FITC); higher = higher leak
- condition.set: library round: Round 1; ligand: none
property: sfGFP reporter fluorescence
Reply with the value as a number alone.

Reference set, count: 6
| polymer.sequence | sfGFP reporter fluorescence |
| --- | --- |
| MNIQIGELAKRTACPVVTIRFYEQEGLLPPPGRSRGNFRLYGEEHVERLQFIRHCRSLDMPLSDVRTLLSYRKRPDQDCGEVTMLLDEHIRQVESRIGALLELKHHLVELREACSGARPAQSCGILQGLSSCVCRTRGTTAHPSD [N83T D131S D135R] | 0.064 |
| MNIQIGELAKRTACPVVTIRFYEQEGLLPPPGRSRGNFRLYGEEHVERLQFIRHCRSLDMNLSDVRTLLSYRKRPDQDCGEVNMLLDEHIRQVESRIGALLELVHHEVELREACSGARPAQSCGILQGLSDCVCDTRGTTAHPSD [P61N K104V L107E] | 0.0663 |
| MNIQIGELAKRTACPVVTIRFYEQEGLLPPPGRSRGNFRLYGEEHVERLQFIRHCRSLDMPLSAVRTLLSYRKRPDQDCGEVNMLLDEHIRQVESRIGALLELKHHLVELREACSGARPAQSCGILQGLSDCVMDTRGTTAHPSD [D64A C134M] | 0.135 |
| MNIQIGELAKRTACPVVTIRFYEQEGLLPPPGRSRGNFRLYGEEHVERLQFIRHCRSLDMPLSDVRTLLSYRKRPDQDCGEVNMLLDEHIRQVESRIGALLELKHHLVALREACSGARPAQSCGILQGLSCCVCDTRGTTAHPSD [E109A D131C] | 0.0641 |
| MNIQIGELAKRTACPNVTIRFYEQEGLLPPPGRSRGNFRLYGEEHVERLQFIRHCRSADMPLSDVRTLLSYRKRPDQDCGEVNMLLDEHIRQVESRIGALLELKHHLVELREACSGARPAQSCGILQGLSDCVCDTRGTTAHPSD [V16N L58A] | 0.0597 |
| MNIQIGELAKRTACPVVTIRFYEQEGLLPPPGRSRGNFRLYGEEHVERLQFIRHCRSLDMPLSDVRTLLSYRKRPDQDCGEVTMLLDEHIRQVESRIGALLELKHHLVELREACSGARPAQSCGILQGLSDCVCVTRGTTAHASD [N83T D135V P143A] | 0.0633 |

Form field: reported sfGFP reporter fluorescence of MNIQIGELAKRTACPVVTIRFYEQEGLLPPPGRSRGNFRLYGEEHVERLQFIRHCRSLDMPLSKVRTLLSYRKRPDQDCGEVNMLLDEHIRQVESRIGALLELKHHLVELAEACSGARPAQSCGILQGLSDCVCDTRGTTAHPSD [D64K R111A] 0.112

Reported sfGFP reporter fluorescence for MNIQIGELAKRTACPVVTIRFYEQEGLLPPPGRSRGNFRLYGEEHVERLQFIRHCRSLDMPLSDVRTLLSYRKRPDQDCGEVNMLLDEHIRQVESRIGALLELKHHLVELREACSGARPAQSCGILQILSCCVCDTRGTTAHPSD [G128I D131C] : what is it? 0.0762

Would you mind telling me what sfGFP reporter fluorescence value was observed for MNIQIGELAKRTACPVVTIRFYEQEGLLPPPGRSRGNFRLYGEEHVERLQFIRHCRSLDMPLSDVRTLLSYRKRPDQDCGEVNMLLDEHIRQVESRIGALLELKHHLVELREACSGARPAQSCGILQGLSDCVCDTRGTTACASD [H142C P143A] ? 0.0676

Could you tell me which sfGFP reporter fluorescence is on file for MNIQIGELAKRTACPVVTIRFYEQEGLLPPPGRSRGNFRLYGEEHVERLQFIRHCRSLDMPLSDVRTLLSYRKRPDQDCGEVNMLLDEHIRQVESRIGALLELKHHEVELREACSGARPAQSCGILQILSDCVCDTRGTTAHPSD [L107E G128I] ? 0.0629

Cited source: the supplement of paper PMC12783771
